- Tested on: Rhizoctonia solani
- protocol.text: Antifungal activity against Rhizoctonia solani 1583 after 24 to 48 hrs by soft agar procedure
- Type: functional
measure: MIC

Incoming: Specify reported MIC for the molecule shown: C/C=C(\NC(=O)[C@H](NC(=O)[C@H](CC(C)C)NC(=O)[C@@H](CCC(N)=O)NC(=O)[C@@H](NC(=O)[C@H](NC(=O)[C@@H](CC(C)C)NC(=O)[C@@H](CO)NC(=O)[C@H](NC(=O)[C@H](CC(C)C)NC(=O)[C@H](CO)NC(=O)[C@H]1CCCN1C(=O)/C(=C/C)NC(=O)CC(O)CCCCC)C(C)C)C(C)C)C(C)C)C(C)C)C(=O)N[C@H]1C(=O)N[C@@H](CC(C)C)C(=O)N[C@@H](CCO)C(=O)N[C@H](CCN)C(=O)N[C@@H](CCCCN)C(=O)O[C@@H]1C (some centres not stated)
Outgoing: 0.16 µg

Incoming: Provide MIC value for the following molecule: C/C=C(\NC(=O)[C@H](NC(=O)[C@H](CC(C)C)NC(=O)[C@@H](CCC(N)=O)NC(=O)[C@@H](NC(=O)[C@H](NC(=O)[C@@H](CC(C)C)NC(=O)[C@@H](CO)NC(=O)[C@H](NC(=O)[C@H](CC(C)C)NC(=O)[C@H](CO)NC(=O)[C@H]1CCCN1C(=O)/C(=C/C)NC(=O)CC(O)CCCCC)C(C)C)C(C)C)C(C)C)C(C)C)C(=O)N[C@H]1C(=O)N[C@@H](C(C)C)C(=O)N[C@@H](CCO)C(=O)N[C@H](CCN)C(=O)N[C@@H](CCCCN)C(=O)O[C@@H]1C (some centres not stated)
Outgoing: 2.56 µg

----------
- Test system: Rhizoctonia solani
- protocol.text: Antifungal activity against Rhizoctonia solani 1583 after 24 to 48 hrs by soft agar procedure
- Format: functional
measure: MIC (µg)
Respond with the bare value in µg.

Incoming: Provide MIC value for the following compound: C/C=C(\NC(=O)[C@H](NC(=O)[C@H](CC(C)C)NC(=O)[C@@H](CCC(N)=O)NC(=O)[C@@H](NC(=O)[C@H](NC(=O)[C@@H](CC(C)C)NC(=O)[C@@H](CO)NC(=O)[C@H](NC(=O)[C@H](CC(C)C)NC(=O)[C@H](CO)NC(=O)[C@H]1CCCN1C(=O)/C(=C/C)NC(=O)CC(O)CCCCC)C(C)C)C(C)C)C(C)C)C(C)C)C(=O)N[C@@H](C(=O)N[C@H](C(=O)N[C@@H](CCO)C(=O)N[C@H](CCN)C(=O)N[C@@H](CCCCN)C(=O)O)[C@@H](C)CC)[C@@H](C)O (stereo partly specified) [TOLAASIN C]
Outgoing: 5.12
